Please respond with reported EC50 for every item in the list.
Test system: Meloidogyne incognita
Assay: Nematotoxic activity against freshly hatched Meloidogyne incognita J2 (root-knot nematode) isolated from tomato roots assessed as induction of nematode paralysis measured 24 hr after immersion in compound test solutions
Assay type: functional, organism-based

Reference set (3 entries):
O=C(O)c1ccc(O)c(O)c1: > 1000 µg/mL
O=C(O)c1cc(O)c(O)c(O)c1: > 1000 µg/mL
Oc1cc(O)c2c(c1)OC(c1ccc(O)c(O)c1)C(O)C2 (stereo unspecified): > 1000 µg/mL

Give EC50 for each of the items listed below.
1. O=C(O)/C=C/c1ccc(O)c(O)c1
2. O=C(O)/C=C/c1ccc(O)cc1
3. O=C(O)c1ccc(O)cc1
4. O=C(/C=C/c1ccc(O)c(O)c1)O[C@@H]1C[C@](O)(C(=O)O)C[C@@H](O)[C@H]1O
5. COc1cc(C(=O)O)ccc1O

1. > 1000 µg/mL
2. 840 µg/mL
3. 871 µg/mL
4. > 1000 µg/mL
5. > 1000 µg/mL
